assay target: human DGKα (Homo sapiens (Human), UniProt P23743)
Sequence (P23743 other isoform, or with tags, fused parts or gaps): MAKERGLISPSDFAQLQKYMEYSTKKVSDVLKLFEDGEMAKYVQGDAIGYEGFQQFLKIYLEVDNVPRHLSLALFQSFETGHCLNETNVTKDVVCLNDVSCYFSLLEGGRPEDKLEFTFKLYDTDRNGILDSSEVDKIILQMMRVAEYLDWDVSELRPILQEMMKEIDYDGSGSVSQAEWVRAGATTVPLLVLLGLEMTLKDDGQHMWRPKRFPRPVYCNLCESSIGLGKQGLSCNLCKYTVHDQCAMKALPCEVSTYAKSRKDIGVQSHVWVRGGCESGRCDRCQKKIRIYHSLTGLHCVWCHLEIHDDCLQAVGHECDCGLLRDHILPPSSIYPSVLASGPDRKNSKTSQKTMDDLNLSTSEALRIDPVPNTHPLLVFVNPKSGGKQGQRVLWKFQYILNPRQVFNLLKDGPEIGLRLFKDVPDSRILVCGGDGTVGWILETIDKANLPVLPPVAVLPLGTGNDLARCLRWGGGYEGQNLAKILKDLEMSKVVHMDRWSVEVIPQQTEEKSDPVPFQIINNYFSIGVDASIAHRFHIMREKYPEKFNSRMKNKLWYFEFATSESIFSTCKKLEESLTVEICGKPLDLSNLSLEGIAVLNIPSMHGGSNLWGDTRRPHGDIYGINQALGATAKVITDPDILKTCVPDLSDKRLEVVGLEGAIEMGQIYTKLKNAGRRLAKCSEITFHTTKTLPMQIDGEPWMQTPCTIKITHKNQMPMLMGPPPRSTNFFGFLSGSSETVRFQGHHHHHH
test description: DGKα LIPGLO assay (extruded liposome substrate)
Format: biochemical
pIC50: −log10 of the molar value.
pIC50 of 6 or higher: met. Under 6: not met.

>  <compound>
Cn1c(=O)c([N+](=O)[O-])c(N2CCN([C@@H](c3ccccc3)c3ccc(Cl)cc3)CC2)c2nc(C#N)ccc21

>  <classification>
not met

$$$$
>  <compound>
C#CCn1c(=O)c([N+](=O)[O-])c(N2CCN(C(c3ccccc3)c3ccccc3)CC2)c2ncccc21

>  <classification>
not met

$$$$
>  <compound>
CC(c1ccc(F)cc1)N1CCN(c2c(C#N)c(=O)n(CC#N)c3ccc(Br)nc23)CC1 (stereo not shown)

>  <classification>
not met

$$$$
>  <compound>
Cn1c(=O)c(C#N)c(N2CCN(Cc3ccc(F)cc3O)CC2)c2nc(Cl)ccc21

>  <classification>
met

$$$$
>  <compound>
COc1ccc2c(n1)c(N1CCN(C(c3ccc(F)cc3OC)c3ccc(F)cc3OC)CC1)c(C#N)c(=O)n2C

>  <classification>
not met

$$$$
>  <compound>
Cc1cccc(O)c1CN1CCN(c2c(C#N)c(=O)n(C)c3ccc(Cl)nc23)CC1

>  <classification>
met

$$$$
>  <compound>
COc1c(F)cccc1CN1CCN(c2c(C#N)c(=O)n(C)c3ccc(Cl)nc23)CC1

>  <classification>
not met

$$$$

====

assay target: human DGKζ (Homo sapiens (Human), UniProt Q13574)
Sequence (Q13574 other isoform, or with tags, fused parts or gaps): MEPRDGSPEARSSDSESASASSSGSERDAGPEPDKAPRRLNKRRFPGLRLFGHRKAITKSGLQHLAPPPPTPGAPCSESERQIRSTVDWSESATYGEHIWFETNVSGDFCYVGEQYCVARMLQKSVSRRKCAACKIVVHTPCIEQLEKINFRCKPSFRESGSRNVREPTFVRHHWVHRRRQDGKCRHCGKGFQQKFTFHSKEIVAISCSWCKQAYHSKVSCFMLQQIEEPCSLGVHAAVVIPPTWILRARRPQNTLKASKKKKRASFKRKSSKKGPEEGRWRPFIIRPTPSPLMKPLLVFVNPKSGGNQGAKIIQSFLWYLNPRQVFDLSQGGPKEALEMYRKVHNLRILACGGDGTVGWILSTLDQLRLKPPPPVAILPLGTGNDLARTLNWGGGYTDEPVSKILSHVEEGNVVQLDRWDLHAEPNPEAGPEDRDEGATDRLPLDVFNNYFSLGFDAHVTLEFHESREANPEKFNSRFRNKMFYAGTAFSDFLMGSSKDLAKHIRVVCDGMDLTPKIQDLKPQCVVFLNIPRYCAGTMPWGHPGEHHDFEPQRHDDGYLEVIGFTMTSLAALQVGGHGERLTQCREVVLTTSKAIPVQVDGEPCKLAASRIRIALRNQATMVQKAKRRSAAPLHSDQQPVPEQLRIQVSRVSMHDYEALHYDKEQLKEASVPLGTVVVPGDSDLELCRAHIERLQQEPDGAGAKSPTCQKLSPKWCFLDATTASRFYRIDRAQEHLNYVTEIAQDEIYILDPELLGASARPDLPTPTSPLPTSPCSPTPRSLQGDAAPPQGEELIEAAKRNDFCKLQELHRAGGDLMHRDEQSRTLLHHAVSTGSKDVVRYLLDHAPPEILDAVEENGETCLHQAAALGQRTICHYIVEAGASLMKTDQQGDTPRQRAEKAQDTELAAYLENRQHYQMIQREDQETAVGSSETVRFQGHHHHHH
test description: DGKζ assay (detergent/lipid micelle substrate)
Assay type: biochemical
condition label: detergent/lipid micelle substrate; read-out: DGKζ IC50
Recorded IC50 values for a group of compounds are listed next.

>  <compound>
Cn1c(=O)c(C#N)c(N2CCN(Cc3ccc(Cl)c(F)c3)CC2)c2nc(Cl)ccc21

>  <readout units>
µM

>  <relation operator>
>

>  <IC50>
240

$$$$
>  <compound>
Cn1c(=O)c(C#N)c(N2CCN(Cc3ccc(F)c(O)c3)CC2)c2nc(Cl)ccc21

>  <readout units>
µM

>  <relation operator>
=

>  <IC50>
140

$$$$
>  <compound>
C#CCn1c(=O)c([N+](=O)[O-])c(N2CCN(C(c3ccc(F)cc3)c3ccccc3O)CC2)c2nc(C#N)ccc21 (single isomer, unassigned) [Example 134]

>  <readout units>
µM

>  <relation operator>
=

>  <IC50>
4.2

$$$$
>  <compound>
COc1cccc(CN2CCN(c3c(C#N)c(=O)n(C)c4ccc(Cl)nc34)CC2)c1

>  <readout units>
µM

>  <relation operator>
=

>  <IC50>
140

$$$$
>  <compound>
Cn1c(=O)c(C#N)c(N2CCN(Cc3cc(Br)ccc3O)CC2)c2nc(Cl)ccc21

>  <readout units>
µM

>  <relation operator>
=

>  <IC50>
58

$$$$
>  <compound>
Cn1c(=O)c(C#N)c(N2CCN(Cc3ccc(O)c(F)c3)CC2)c2nc(Cl)ccc21

>  <readout units>
µM

>  <relation operator>
>

>  <IC50>
240

$$$$
>  <compound>
Cn1c(=O)c(C#N)c(N2CCN(Cc3ccc(OC(F)(F)F)cc3O)CC2)c2nc(C#N)ccc21

>  <readout units>
µM

>  <relation operator>
=

>  <IC50>
36

$$$$

====

assay target: human DGKα (Homo sapiens (Human), UniProt P23743)
test description: biochemical
condition label: detergent/lipid micelle substrate; read-out: DGKα IC50
Recorded IC50 values for a group of compounds are listed next.
readout kind: IC50 (µM)

>  <compound>
Cc1ccc(CN2CCN(c3c(C#N)c(=O)n(C)c4ccc(Cl)nc34)CC2)cc1 [Example 386]

>  <recorded value>
0.15

$$$$
>  <compound>
C#CCn1c(=O)c([N+](=O)[O-])c(N2CCN(C(c3ccc(F)cc3)c3ccc(F)cc3O)CC2)c2nc(C#N)ccc21 (single isomer, unassigned) [Example 120]

>  <recorded value>
18

$$$$
>  <compound>
Cc1cccc(C(c2ccc(F)cc2)N2CCN(c3c([N+](=O)[O-])c(=O)n(C)c4ccc(Br)nc34)CC2)c1O (single isomer, unassigned) [Example 85]

>  <recorded value>
7.6

$$$$
>  <compound>
COc1ccc2c(c1)C(N1CCN(c3c([N+](=O)[O-])c(=O)n(C)c4ccc(C#N)nc34)CC1)CC2 (stereo not shown) [Example 46]

>  <recorded value>
8.5

$$$$

====

assay target: human DGKζ (Homo sapiens (Human), UniProt Q13574)
test description: DGKζ assay (detergent/lipid micelle substrate)
Type: biochemical
condition label: detergent/lipid micelle substrate; read-out: DGKζ IC50
Recorded IC50 values for a group of compounds are listed next.

>  <compound>
Cc1ccc2c(n1)c(N1CCN(Cc3cc(Cl)ccc3O)CC1)c(C#N)c(=O)n2C

>  <assay target>
human DGKζ (Homo sapiens (Human), UniProt Q13574)

>  <IC50>
150 µM

$$$$
>  <compound>
COc1ccccc1C(c1ccc(F)cc1)N1CCN(c2c(C#N)c(=O)n(CC3CC3)c3ccc(Br)nc23)CC1 (racemic) [Example 158]

>  <assay target>
human DGKζ (Homo sapiens (Human), UniProt Q13574)

>  <IC50>
> 240 µM

$$$$
>  <compound>
C#CCOc1ccccc1C(c1ccc(F)cc1)N1CCN(c2c([N+](=O)[O-])c(=O)n(C)c3ccc(C#N)nc23)CC1 (single isomer, unassigned)

>  <assay target>
human DGKζ (Homo sapiens (Human), UniProt Q13574)

>  <IC50>
27 µM

$$$$
>  <compound>
COc1cccc(F)c1CN1CCN(c2c(C#N)c(=O)n(C)c3ccc(Cl)nc23)CC1

>  <assay target>
human DGKζ (Homo sapiens (Human), UniProt Q13574)

>  <IC50>
> 240 µM

$$$$
>  <compound>
COc1cc(C#N)ccc1CN1CCN(c2c(C#N)c(=O)n(C)c3ccc(Cl)nc23)CC1

>  <assay target>
human DGKζ (Homo sapiens (Human), UniProt Q13574)

>  <IC50>
> 240 µM

$$$$
>  <compound>
COc1ccccc1C(c1ccc(F)cc1)N1CCN(c2c([N+](=O)[O-])c(=O)n(C)c3ccc(C#N)nc23)CC1 (single isomer, unassigned) [Example 19]

>  <assay target>
human DGKζ (Homo sapiens (Human), UniProt Q13574)

>  <IC50>
19 µM

$$$$
>  <compound>
C#CCn1c(=O)c([N+](=O)[O-])c(N2CCN(C(c3ccc(F)cc3)c3ccccc3O)CC2)c2nc(C#N)ccc21 (racemic) [Example 132]

>  <assay target>
human DGKζ (Homo sapiens (Human), UniProt Q13574)

>  <IC50>
0.15 µM

$$$$
>  <compound>
CCC(c1ccc(F)cc1)N1CCN(c2c(C#N)c(=O)n(C)c3ccc(Br)nc23)CC1 (single isomer, unassigned) [Example 26]

>  <assay target>
human DGKζ (Homo sapiens (Human), UniProt Q13574)

>  <IC50>
85 µM

$$$$
>  <compound>
Cn1c(=O)c(C#N)c(N2CCN(Cc3ccccc3Cl)CC2)c2nc(Br)ccc21

>  <assay target>
human DGKζ (Homo sapiens (Human), UniProt Q13574)

>  <IC50>
> 240 µM

$$$$
>  <compound>
COc1c(F)cccc1CN1CCN(c2c(C#N)c(=O)n(C)c3ccc(Cl)nc23)CC1

>  <assay target>
human DGKζ (Homo sapiens (Human), UniProt Q13574)

>  <IC50>
30 µM

$$$$
>  <compound>
C#CCn1c(=O)c(C#N)c(N2CCN(Cc3c(C)cc(C)cc3O)CC2)c2nc(Br)ccc21

>  <assay target>
human DGKζ (Homo sapiens (Human), UniProt Q13574)

>  <IC50>
13 µM

$$$$
>  <compound>
Cc1cccc(Cl)c1CN1CCN(c2c(C#N)c(=O)n(C)c3ccc(Cl)nc23)CC1

>  <assay target>
human DGKζ (Homo sapiens (Human), UniProt Q13574)

>  <IC50>
> 81 µM

$$$$
>  <compound>
Cn1c(=O)c(C#N)c(N2CCN(Cc3cccc4cn[nH]c34)CC2)c2nc(Br)ccc21

>  <assay target>
human DGKζ (Homo sapiens (Human), UniProt Q13574)

>  <IC50>
230 µM

$$$$
>  <compound>
Cc1cccc(O)c1CN1CCN(c2c(C#N)c(=O)n(C)c3ccc(Cl)nc23)CC1

>  <assay target>
human DGKζ (Homo sapiens (Human), UniProt Q13574)

>  <IC50>
25 µM

$$$$
>  <compound>
Cn1c(=O)c([N+](=O)[O-])c(N2CCN(C(c3ccc(F)cc3)c3ccccc3O)CC2)c2nc(C#N)ccc21 (single isomer, unassigned) [Example 99]

>  <assay target>
human DGKζ (Homo sapiens (Human), UniProt Q13574)

>  <IC50>
0.67 µM

$$$$
>  <compound>
COc1ccc(O)c(CN2CCN(c3c(C#N)c(=O)n(C)c4ccc(Cl)nc34)CC2)c1

>  <assay target>
human DGKζ (Homo sapiens (Human), UniProt Q13574)

>  <IC50>
62 µM

$$$$
>  <compound>
C#CCn1c(=O)c([N+](=O)[O-])c(N2CCN(C(c3ccc(F)cc3)C3CC3)CC2)c2nc(C#N)ccc21 (single isomer, unassigned) [Example 143]

>  <assay target>
human DGKζ (Homo sapiens (Human), UniProt Q13574)

>  <IC50>
4.2 µM

$$$$
>  <compound>
Cc1ccc(CN2CCN(c3c(C#N)c(=O)n(C)c4ccc(Cl)nc34)CC2)cc1F

>  <assay target>
human DGKζ (Homo sapiens (Human), UniProt Q13574)

>  <IC50>
> 81 µM

$$$$
>  <compound>
C=CCOc1cccc(C)c1C(c1ccc(F)cc1)N1CCN(c2c([N+](=O)[O-])c(=O)n(C)c3ccc(Br)nc23)CC1 (single isomer, unassigned) [Example 95]

>  <assay target>
human DGKζ (Homo sapiens (Human), UniProt Q13574)

>  <IC50>
> 240 µM

$$$$
>  <compound>
COCCn1c(=O)c([N+](=O)[O-])c(N2CCN(C(C)c3ccc(F)cc3)CC2)c2nc(C#N)ccc21 (single isomer, unassigned) [Example 149]

>  <assay target>
human DGKζ (Homo sapiens (Human), UniProt Q13574)

>  <IC50>
86 µM

$$$$
>  <compound>
Cn1c(=O)c(C#N)c(N2CCN(Cc3ccc(F)cc3O)CC2)c2nc(Cl)ccc21

>  <assay target>
human DGKζ (Homo sapiens (Human), UniProt Q13574)

>  <IC50>
> 240 µM

$$$$
>  <compound>
COc1cccc(CN2CCN(c3c(C#N)c(=O)n(C)c4ccc(Br)nc34)CC2)c1O

>  <assay target>
human DGKζ (Homo sapiens (Human), UniProt Q13574)

>  <IC50>
> 240 µM

$$$$
>  <compound>
Cn1c(=O)c([N+](=O)[O-])c(N2CCN(C(c3ccc(F)cc3)c3ccc(F)cc3)CC2)c2ncccc21

>  <assay target>
human DGKζ (Homo sapiens (Human), UniProt Q13574)

>  <IC50>
> 240 µM

$$$$
>  <compound>
COc1ccc(CN2CCN(c3c(C#N)c(=O)n(C)c4ccc(Cl)nc34)CC2)c(O)c1

>  <assay target>
human DGKζ (Homo sapiens (Human), UniProt Q13574)

>  <IC50>
> 240 µM

$$$$
>  <compound>
CC(=O)Nc1ccccc1CN1CCN(c2c(C#N)c(=O)n(C)c3ccc(Br)nc23)CC1

>  <assay target>
human DGKζ (Homo sapiens (Human), UniProt Q13574)

>  <IC50>
> 81 µM

$$$$
>  <compound>
C#CCn1c(=O)c(C#N)c(N2CCN(Cc3ccc(C)cc3O)CC2)c2nc(Br)ccc21

>  <assay target>
human DGKζ (Homo sapiens (Human), UniProt Q13574)

>  <IC50>
13 µM

$$$$
>  <compound>
COc1cc(F)ccc1C(c1ccc(F)cc1)N1CCN(c2c(C#N)c(=O)n(C)c3ccc(Br)nc23)CC1 (single isomer, unassigned) [Example 16]

>  <assay target>
human DGKζ (Homo sapiens (Human), UniProt Q13574)

>  <IC50>
> 240 µM

$$$$
>  <compound>
COc1ccc(CN2CCN(c3c(C#N)c(=O)n(C)c4ccc(Cl)nc34)CC2)cc1

>  <assay target>
human DGKζ (Homo sapiens (Human), UniProt Q13574)

>  <IC50>
> 240 µM

$$$$
